- System: GLI1 mRNA expression
- MEASUREMENT DESCRIPTION: RT-qPCR GLI1 mRNA expression in Sufu-KO MEFs
- Type: cell-based, mouse
- CONDITIONS USED: Table 5, GLI1 mRNA, Ave ± SEM; read-out: RT-qPCR, IC50 Sufu-KO
QUANTITY KIND: IC50

compound="CN(C)c1ccccc1CN1CCCN(Cc2ccccc2N(C)C)C1c1ccncc1 [GANT61, reference compound]" result="5.3 µM"

###

- Test system: GLI1 mRNA expression
- MEASUREMENT DESCRIPTION: RT-qPCR GLI1 mRNA expression in OHCs-stimulated C3H10T1/2 MEFs
- Format: cell-based, mouse
- CONDITIONS USED: C3H10T1/2 MEFs, 10 μM, relative to Hh-agonist OHCs (set as 100%), mean ± SEM
This listing pairs compounds with measured % Gli1 Expression.
QUANTITY KIND: % Gli1 Expression

compound="Cc1ccc(NC(c2cccc(C)n2)c2ccc3cccnc3c2O)nc1 (centres unmarked)" quantity_kind="% Gli1 Expression" result=>100%
compound="CSc1ccc(C(Nc2cc(C)ccn2)c2ccc3cccnc3c2O)cc1 (racemic)" quantity_kind="% Gli1 Expression" result="4.1 ± 1.1%"
compound="Cc1ccc2ccc(C(Nc3ccccn3)c3ccccc3Cl)c(O)c2n1 (racemic)" quantity_kind="% Gli1 Expression" result="23.6 ± 2.8%"
compound="COc1ccc(C(Nc2cc(C)ccn2)c2ccc3cccnc3c2O)cc1O (racemic)" quantity_kind="% Gli1 Expression" result="6.1 ± 0.6%"
compound="CCOc1ccc(C(Nc2ccccn2)c2ccc3ccc(C)nc3c2O)cc1OC (racemic)" quantity_kind="% Gli1 Expression" result=>100%

###

- Tested on: GLI1 mRNA expression
- MEASUREMENT DESCRIPTION: RT-qPCR GLI1 mRNA expression in Sufu-KO MEFs
- Type: cell-based, mouse
- CONDITIONS USED: Table 4, racemates and enantiomers, mean ± SEM; read-out: RT-qPCR, IC50 Sufu-KO
QUANTITY KIND: IC50 (nM)

compound="Cc1ccnc(NC(c2cccc(Cl)c2Cl)c2ccc3cccnc3c2O)c1 (racemic)" numeric_value=1500
compound="CCN(CC)c1ccc(C(Nc2ccccn2)c2ccc3ccc(C)nc3c2O)cc1 (single isomer, unassigned) [Compound 1a]" numeric_value=1700
compound="Oc1c(C(Nc2ccccn2)c2c(F)cccc2Cl)ccc2cccnc12 (racemic)" numeric_value=1000
compound="Oc1c(C(Nc2ccccn2)c2ccc(Cl)c(Cl)c2)ccc2cccnc12 (racemic)" numeric_value=480
compound="Cc1ccnc(NC(c2cc(C)ccc2C)c2ccc3cccnc3c2O)c1 (racemic)" numeric_value=310
compound="CCN(CC)c1ccc(C(Nc2ccccn2)c2ccc3ccc(C)nc3c2O)cc1 (single isomer, unassigned) [Compound 1b]" numeric_value=750

###

- ASSAY TARGET: GLI1-ZFD (Homo sapiens, UniProt P08151)
- Construct: GLI1-ZFD Expression and Purification; made in house
- MEASUREMENT DESCRIPTION: Microscale thermophoresis (MST) binding to GLI1-ZFD
- CONDITIONS USED: Table 4, mean ± SEM
pKd: −log10 of the molar value.
QUANTITY KIND: pKd

molecule="CCN(CC)c1ccc(C(Nc2ccccn2)c2ccc3ccc(C)nc3c2O)cc1 (stereo not drawn) [Compound 1]" assay_target="GLI1-ZFD (Homo sapiens, UniProt P08151)" numeric_value=4.87
molecule="CCN(CC)c1ccc(C(Nc2ccccn2)c2ccc3ccc(C)nc3c2O)cc1 (single isomer, unassigned) [Compound 1a]" assay_target="GLI1-ZFD (Homo sapiens, UniProt P08151)" numeric_value=4.89
molecule="CCN(CC)c1ccc(C(Nc2ccccn2)c2ccc3ccc(C)nc3c2O)cc1 (single isomer, unassigned) [Compound 1b]" assay_target="GLI1-ZFD (Homo sapiens, UniProt P08151)" numeric_value=4.66

###

- Tested on: GLI1 mRNA expression
- MEASUREMENT DESCRIPTION: RT-qPCR GLI1 mRNA expression in OHCs-stimulated C3H10T1/2 MEFs
- Format: cell-based, mouse
- CONDITIONS USED: C3H10T1/2 MEFs, 10 μM, relative to Hh-agonist OHCs (set as 100%), mean ± SEM
QUANTITY KIND: % Gli1 Expression

molecule="CN(C)c1ccccc1CN1CCCN(Cc2ccccc2N(C)C)C1c1ccncc1 [GANT61, reference compound]" assay_target="GLI1 mRNA expression" quantity_kind="% Gli1 Expression" result="72.4 ± 5.6%"
molecule="Cc1ccc2ccc(C(Nc3ccccn3)c3ccccc3F)c(O)c2n1 (racemic)" assay_target="GLI1 mRNA expression" quantity_kind="% Gli1 Expression" result="78.9 ± 17.6%"
molecule="CCOc1cccc(C(Nc2cc(C)ccn2)c2ccc3cccnc3c2O)c1C (racemic)" assay_target="GLI1 mRNA expression" quantity_kind="% Gli1 Expression" result="59.1 ± 11.9%"
molecule="CCOc1cccc(C(Nc2ccccn2)c2ccc3ccc(C)nc3c2O)c1 (racemic)" assay_target="GLI1 mRNA expression" quantity_kind="% Gli1 Expression" result="56.1 ± 2.1%"

###

GI50 values by entry
- System: ASZ001 cells
- MEASUREMENT DESCRIPTION: MTS anti-proliferative assay in ASZ001 cells
- Assay type: cell-based, murine
- CONDITIONS USED: Mus musculus, ASZ001; Table 5, 48 h, Ave ± SEM
- Method: Cell viability was assessed by MTS proliferation assay kit (Promega) per manufacturer's protocol. Briefly, 2×10^4 cells were plated in a 96-well plate in 100 μL growth medium to make the cell population at ˜80% confluence. After 24 h, 1 μL drug solution was added to each well. DMSO was used as vehicle compound. […] Absorbance at 490 nm was recorded, and the result was analyzed by GraphPad Prism 5. […]
QUANTITY KIND: GI50

molecule="CCN(CC)c1ccc(C(Nc2ccccn2)c2ccc3ccc(C)nc3c2OC)cc1 (stereo not drawn)" result="> 100 µM"
molecule="C#CCCOc1c(C(Nc2ccccn2)c2ccc(N(CC)CC)cc2)ccc2ccc(C)nc12 (stereo not drawn)" result="> 100 µM"
molecule="CCN(CC)c1ccc(C(Nc2ccccn2)c2cc(C)c3ccc(C)nc3c2O)cc1 (stereo not drawn)" result="15.7 µM"
molecule="CCN(CC)c1ccc(C(Nc2ccccn2)c2ccc3ccc(C)nc3c2OC2CCCC2)cc1 (stereo not drawn)" result="> 100 µM"
molecule="CCN(CC)c1ccc(C(Nc2ccccn2)c2ccc3ccc(C)nc3c2OC(C)C)cc1 (stereo not drawn)" result="> 100 µM"
molecule="CCN(CC)c1ccc(C2c3ccc4ccc(C)nc4c3OC(=O)N2c2ccccn2)cc1 (stereo not drawn)" result="> 100 µM"
molecule="CS(=O)(=O)c1ccc(C(=O)Nc2ccc(Cl)c(-c3ccccn3)c2)c(Cl)c1 [GDC-0449, reference compound]" result="73.6 µM"
molecule="CCN(CC)c1ccc(C(Nc2ccccn2)c2ccc3ccc(C)nc3c2O)cc1 (stereo not drawn)" result="13.8 µM"
molecule="CCN(CC)c1ccc(C(Nc2ccccn2)c2ccc3ccccc3c2O)cc1 (stereo not drawn)" result="> 100 µM"

###

pKd values, listed per item
- ASSAY TARGET: GLI1-ZFD (Homo sapiens, UniProt P08151)
- Construct: GLI1-ZFD Expression and Purification; made in house
- Sequence (P08151 234-388 limits assumed): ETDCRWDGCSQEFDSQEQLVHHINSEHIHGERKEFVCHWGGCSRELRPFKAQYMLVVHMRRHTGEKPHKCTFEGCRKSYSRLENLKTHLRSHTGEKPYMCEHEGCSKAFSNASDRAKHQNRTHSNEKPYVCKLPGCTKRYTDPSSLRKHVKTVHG
- MEASUREMENT DESCRIPTION: Surface plasmon resonance (SPR) binding to GLI1-ZFD
- CONDITIONS USED: analyte 100 to 3.125 μM, 1:1 binding fit, read-out: KD
pKd: −log10 of the molar value.
QUANTITY KIND: pKd

molecule="CCN(CC)c1ccc(C(Nc2ccccn2)c2ccc3ccc(C)nc3c2O)cc1 (single isomer, unassigned) [Compound 1a]" numeric_value=5.02
molecule="CCN(CC)c1ccc(C(Nc2ccccn2)c2ccc3ccc(C)nc3c2O)cc1 (single isomer, unassigned) [Compound 1b]" numeric_value=4.73

###

- ASSAY TARGET: GLI1-ZFD (Homo sapiens, UniProt P08151)
- Construct: GLI1-ZFD Expression and Purification; made in house
- MEASUREMENT DESCRIPTION: Microscale thermophoresis (MST) binding to GLI1-ZFD
- CONDITIONS USED: MST binding assay
QUANTITY KIND: binding to GLI1 (in words)

molecule="Cc1ccc2ccc(C(Nc3ccccn3)c3ccccc3)c(O)c2n1 (stereo not shown)" quantity_kind="binding to GLI1 (in words)" result="do not bind GLI1"
molecule="CCN(CC)c1ccccc1C(Nc1ccccn1)c1ccc2ccc(C)nc2c1O (stereo not shown)" quantity_kind="binding to GLI1 (in words)" result="do not bind GLI1"
